# System: PC-3 prostate
# TEST METHOD NOTES: NCI tumour cell line growth inhibition, 48 h
Measured GI50 values are reported for all entries that follow.

Use these answered entries as a reference point.
# MOLECULE, MEASURED ATTRIBUTE, ENDPOINT VALUE
records = [
    ("O=C1C=Cc2cc3ccccc3c3cccc1c23", "GI50", "3.47 µM"),
    ("C=C1c2c(C)nn(-c3ccccc3)c2N(C)C23C[C@@H]1C1(C)c4c(C)nn(-c5ccccc5)c4N(C)C(C)(C[C@H]12)C3 (stereo partly drawn)", "GI50", "0.979 µM"),
]

Alright, here's another molecule for you.
Can you look up the measured GI50 of "O=C1c2cc(Br)ccc2-c2c1c1ccccc1c(=O)n2CCCCl" for me?
18.3 µM
